For each entry below, report its koff value.
Target: T1, recombinant human CD33 protein (Sino Biologicals) (human, UniProt P20138 18-259)
T1 construct: Bought protein; also called recombinant CD33
T1 sequence (P20138 18-259 limits assumed): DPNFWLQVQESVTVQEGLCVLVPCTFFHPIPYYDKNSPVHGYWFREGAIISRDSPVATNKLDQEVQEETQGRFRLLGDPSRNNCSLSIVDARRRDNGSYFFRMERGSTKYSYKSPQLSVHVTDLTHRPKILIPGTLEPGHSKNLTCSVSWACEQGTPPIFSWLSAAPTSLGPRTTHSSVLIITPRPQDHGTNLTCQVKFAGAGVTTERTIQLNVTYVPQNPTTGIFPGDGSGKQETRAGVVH
Test: BLI (ForteBio), antibody on anti-human Fc sensor, CD33 10 nM
Description: Affinity parameters of the antibody variants for human CD33 were measured by BioLayer Interferometry in a ForteBio assay according to standard techniques (Estep et al. (2013) MAbs 5(2): 270-8) and were compared to those of the parental antibody (antibody 6C7H8) and the parental humanized antibody (antibody 6C71H5). Briefly, the antibodies were captured on anti-human Fc Biosensors (Pall ForteBio). […] Apparent affinity constants (KD) were calculated from the ratio kd/kₐ.
Please give a number only; it is taken to be in s⁻¹.

So for anti-CD33 antibody 6C7H29 (antibody, V domains shown, VH/VL only) VH: EVQLVESGGGLVQPGGSLRLSCAGSGFTFSAYSMNWVRQAPGKGLEWVAEIRLKSNNYVTNYAASVKGRFTISRDDSKNSVYLQMNSLKTEDTGVYYCTRAGYYVPFAYWGQGTLVTVSS VL: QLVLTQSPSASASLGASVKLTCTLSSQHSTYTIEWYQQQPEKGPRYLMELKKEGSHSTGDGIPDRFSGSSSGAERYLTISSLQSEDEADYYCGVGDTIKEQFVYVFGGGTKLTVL , the logged koff turned out to be 0.000868

So for anti-CD33 antibody 6C7H26 (antibody, V domains shown, VH/VL only) VH: EVQLVESGGGLVQPGGSLRLSCAGSGFTFSNYIMNWVRQAPGKGLEWVAEIRLKSNNYVTNYAASVKGRFTISRDDSKNSVYLQMNSLKTEDTGVYYCTRAGYYVPFAYWGQGTLVTVSS VL: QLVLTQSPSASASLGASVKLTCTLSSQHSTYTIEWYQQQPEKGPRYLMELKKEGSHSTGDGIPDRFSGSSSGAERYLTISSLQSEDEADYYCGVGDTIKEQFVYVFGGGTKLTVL , the logged koff turned out to be 0.000944

So for anti-CD33 antibody 6C7H21 (antibody, V domains shown, VH/VL only) VH: EVQLVESGGGLVQPGGSLRLSCAGSGFTFSNYQMNWVRQAPGKGLEWVAEIRLKSNNYVTNYAASVKGRFTISRDDSKNSVYLQMNSLKTEDTGVYYCTRAGYYVPFAYWGQGTLVTVSS VL: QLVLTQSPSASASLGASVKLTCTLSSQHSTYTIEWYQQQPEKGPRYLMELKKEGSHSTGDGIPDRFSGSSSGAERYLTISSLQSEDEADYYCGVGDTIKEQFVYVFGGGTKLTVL , the logged koff turned out to be 0.000263
